All figures here come from patent US20090143396A1.

# test-system: PPAR-alpha (UniProt Q07869)
# assay-info: Transient transfection transactivation assay in CV-1 cells, GAL4-PPAR-alpha LBD chimera, luciferase reporter
# conditions-used: GAL4 chimeric receptor, 20-24 hours treatment
The entries below are paired with their reported EC50.

>  <compound-structure>
C#Cc1cc(CC(=O)O)cc(S(=O)(=O)N2CCN(Cc3ccc(OC(F)(F)F)cc3)CC2)c1

>  <test-system>
PPAR-alpha (UniProt Q07869)

>  <EC50>
< 5 µM

$$$$
>  <compound-structure>
Cc1ccc(S(=O)(=O)N2[C@H](C)CN(Cc3ccc(Cl)c(Cl)c3)C[C@@H]2C)cc1CC(=O)O

>  <test-system>
PPAR-alpha (UniProt Q07869)

>  <EC50>
< 5 µM

$$$$
>  <compound-structure>
Cc1ccc(S(=O)(=O)N2CCN(Cc3ccc(C(F)(F)F)cc3)CC2)cc1CC(=O)O

>  <test-system>
PPAR-alpha (UniProt Q07869)

>  <EC50>
< 5 µM

$$$$
>  <compound-structure>
C#Cc1cc(CC(=O)O)cc(S(=O)(=O)N2CCN(Cc3cccc(OC(F)(F)F)c3)CC2)c1

>  <test-system>
PPAR-alpha (UniProt Q07869)

>  <EC50>
< 5 µM

$$$$
>  <compound-structure>
Cc1ccc(S(=O)(=O)N2CCN(Cc3ccc(OC(F)(F)F)cc3)CC2)cc1CC(=O)O

>  <test-system>
PPAR-alpha (UniProt Q07869)

>  <EC50>
< 5 µM

$$$$
>  <compound-structure>
C[C@@H]1CN(Cc2ccc(OC(F)(F)F)cc2)C[C@H](C)N1S(=O)(=O)c1cccc(CC(=O)O)c1

>  <test-system>
PPAR-alpha (UniProt Q07869)

>  <EC50>
5 to 100 µM

$$$$
>  <compound-structure>
Cc1ccc(S(=O)(=O)N2[C@H](C)CN(Cc3ccc(OC(F)(F)F)cc3)C[C@@H]2C)cc1CC(=O)O

>  <test-system>
PPAR-alpha (UniProt Q07869)

>  <EC50>
< 5 µM

$$$$

----------
# test-system: PPAR-gamma (UniProt P37231)
# Sequence (P37231 1-505): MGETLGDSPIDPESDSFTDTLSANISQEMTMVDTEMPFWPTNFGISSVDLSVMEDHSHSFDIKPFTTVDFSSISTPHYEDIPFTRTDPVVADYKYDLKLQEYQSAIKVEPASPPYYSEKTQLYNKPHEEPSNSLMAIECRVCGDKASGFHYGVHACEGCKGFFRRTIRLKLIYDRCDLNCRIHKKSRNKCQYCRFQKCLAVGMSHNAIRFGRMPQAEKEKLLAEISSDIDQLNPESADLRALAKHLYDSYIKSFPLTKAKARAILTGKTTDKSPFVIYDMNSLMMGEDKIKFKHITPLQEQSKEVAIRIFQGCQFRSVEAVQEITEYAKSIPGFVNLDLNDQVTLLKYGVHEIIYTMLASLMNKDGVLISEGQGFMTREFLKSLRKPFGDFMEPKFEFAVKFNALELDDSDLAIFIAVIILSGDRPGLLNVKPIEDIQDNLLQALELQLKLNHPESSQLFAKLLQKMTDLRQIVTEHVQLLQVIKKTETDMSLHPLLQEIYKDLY
# assay-info: Transient transfection transactivation assay in CV-1 cells, GAL4-PPAR-gamma LBD chimera, luciferase reporter
# conditions-used: GAL4 chimeric receptor, 20-24 hours treatment

>  <compound>
C#Cc1cc(CC(=O)O)cc(S(=O)(=O)N2CCN(Cc3cccc(OC(F)(F)F)c3)CC2)c1 [Example 9]

>  <EC50>
< 5 µM

$$$$
>  <compound>
Cc1ccc(S(=O)(=O)N2CCN(Cc3ccc(OC(F)(F)F)cc3)CC2)cc1CC(=O)O [Example 3]

>  <EC50>
< 5 µM

$$$$
>  <compound>
Cc1ccc(S(=O)(=O)N2[C@H](C)CN(Cc3ccc(Cl)c(Cl)c3)C[C@@H]2C)cc1CC(=O)O [Example 7]

>  <EC50>
> 100 µM

$$$$
>  <compound>
Cc1ccc(S(=O)(=O)N2[C@H](C)CN(Cc3ccc(OC(F)(F)F)cc3)C[C@@H]2C)cc1CC(=O)O [Example 1]

>  <EC50>
> 100 µM

$$$$
>  <compound>
Cc1cc(CC(=O)O)cc(S(=O)(=O)N2[C@H](C)CN(Cc3ccc(OC(F)(F)F)cc3)C[C@@H]2C)c1 [Example 5]

>  <EC50>
> 100 µM

$$$$
>  <compound>
C#Cc1cc(CC(=O)O)cc(S(=O)(=O)N2CCN(Cc3ccc(OC(F)(F)F)cc3)CC2)c1 [Example 8]

>  <EC50>
< 5 µM

$$$$
>  <compound>
Cc1ccc(S(=O)(=O)N2[C@H](C)CN(C(=O)Cc3ccc(OC(F)(F)F)cc3)C[C@@H]2C)cc1CC(=O)O [Example 10]

>  <EC50>
> 100 µM

$$$$
>  <compound>
C[C@@H]1CN(Cc2ccc(OC(F)(F)F)cc2)C[C@H](C)N1S(=O)(=O)c1cccc(CC(=O)O)c1 [Example 6]

>  <EC50>
< 5 µM

$$$$
>  <compound>
Cc1ccc(S(=O)(=O)N2[C@H](C)CN(Cc3ccc(C(F)(F)F)cc3)C[C@@H]2C)cc1CC(=O)O [Example 2]

>  <EC50>
5 to 100 µM

$$$$
>  <compound>
Cc1ccc(S(=O)(=O)N2CCN(Cc3ccc(C(F)(F)F)cc3)CC2)cc1CC(=O)O [Example 4]

>  <EC50>
< 5 µM

$$$$

----------
The entries below are paired with their reported pEC50.
# test-system: PPAR-alpha (UniProt Q07869)
# Sequence (Q07869 1-468): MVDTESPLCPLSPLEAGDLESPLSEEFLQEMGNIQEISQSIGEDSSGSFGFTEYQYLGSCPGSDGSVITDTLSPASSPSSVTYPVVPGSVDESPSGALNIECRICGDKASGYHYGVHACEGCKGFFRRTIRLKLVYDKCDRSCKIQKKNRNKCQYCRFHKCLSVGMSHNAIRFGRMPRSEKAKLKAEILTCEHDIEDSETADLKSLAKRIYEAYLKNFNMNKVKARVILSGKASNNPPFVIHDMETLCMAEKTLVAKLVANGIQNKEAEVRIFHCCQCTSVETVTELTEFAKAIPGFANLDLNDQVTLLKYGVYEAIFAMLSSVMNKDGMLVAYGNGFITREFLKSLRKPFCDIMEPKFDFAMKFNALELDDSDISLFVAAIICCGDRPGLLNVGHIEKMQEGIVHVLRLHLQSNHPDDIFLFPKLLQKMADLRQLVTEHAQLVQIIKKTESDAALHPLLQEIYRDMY
# assay-info: Transient transfection transactivation assay in CV-1 cells, GAL4-PPAR-alpha LBD chimera, luciferase reporter
# conditions-used: GAL4 chimeric receptor, 20-24 hours treatment
pEC50: −log10 of the molar value.
test-readout: pEC50

>  <compound-structure>
Cc1cc(CC(=O)O)cc(S(=O)(=O)N2[C@H](C)CN(Cc3ccc(OC(F)(F)F)cc3)C[C@@H]2C)c1

>  <test-readout>
pEC50

>  <val>
4.00 to 5.30

$$$$
>  <compound-structure>
Cc1ccc(S(=O)(=O)N2[C@H](C)CN(Cc3ccc(C(F)(F)F)cc3)C[C@@H]2C)cc1CC(=O)O

>  <test-readout>
pEC50

>  <val>
> 5.30

$$$$
>  <compound-structure>
Cc1ccc(S(=O)(=O)N2[C@H](C)CN(C(=O)Cc3ccc(OC(F)(F)F)cc3)C[C@@H]2C)cc1CC(=O)O

>  <test-readout>
pEC50

>  <val>
< 4.00

$$$$
